species: Bos taurus; assay: Increase in melting point temperature after 36 hr of incubation [1:5] as measurement of DNA binding affinity using calf thymus DNA; type: functional
Quick reference: ΔTm of the listed items.
Number only, in °C; omit the unit.

Here are 4 compounds together with their reported answers.
Return reported ΔTm; argument: COc1cc2c(cc1OCCCOc1cc3c(cc1OC)C(=O)N1CC(=C(F)F)C[C@H]1C=N3)N=C[C@@H]1CC(=C(F)F)CN1C2=O 24.9

Return reported ΔTm; argument: COc1cc2c(cc1OCCCCOc1cc3c(cc1OC)C(=O)N1CC(=C(F)F)C[C@H]1C=N3)N=C[C@@H]1CC(=C(F)F)CN1C2=O 6.5

Return reported ΔTm; argument: COc1cc2c(cc1O)N=C[C@@H]1CC(=C(F)F)CN1C2=O 2.2

Return reported ΔTm; argument: COc1cc2c(cc1OCCCCCOc1cc3c(cc1OC)C(=O)N1CC(=C(F)F)C[C@H]1C=N3)N=C[C@@H]1CC(=C(F)F)CN1C2=O 21.3

Continuing:
Return reported ΔTm; argument: COc1cc2c(cc1OCCCOc1cc3c(cc1OC)C(=O)N1CCC[C@H]1C=N3)N=C[C@@H]1CCCN1C2=O 15.7

Return reported ΔTm; argument: COc1cc2c(cc1O)N=C[C@@H]1CCCN1C2=O 0.7
